- tested.on: T1, recombinant SARS-CoV-2 Spike RBD domain, BA.2 variant (SARS-CoV-2)
- T1 construct: also called RBD BA.2. variant
- experiment.description: competition ELISA, blocking of RBD binding to ACE2 ectodomain
I'd appreciate it if you could supply Blocking % values for the items below.
One number for each entry, in %.

Examples with answers:
- SPK002M A2 antibody (antibody, human IgG1, kappa, V domains shown) VH: EVQLVESGGGLIQPGGSLRLSCAASTITVTSNYMSWVRQAPGKGLEWVSVIYPGGSTFYADSVKGRFTISADNSKNTLYLQMNSLRAEDTAVYYCARDLVVYGMDVWGQGTTVTVSS VL: EIVLTQSPGTLSLSPGERATLSCRASQGVSSSYLAWYQQKPGQAPRLLIYGASSRATGIPGRFSGSGSGTDFTLTISRLEPEDFAVYYCQQGVTFGGGTKVEIKR: 94
- SPK002M B2 antibody (antibody, human IgG1, kappa, V domains shown) VH: EVQLVESGGGLIQPGGSLRLSCAASIITVTSNYMSWVRQAPGKGLEWVSVIYPGGSTFYADSVKGRFTISYDNSKNTLYLQMNSLRAEDTAVYYCARDLVVYGMDVWGQGTTVTVSS VL: EIVLTQSPGTLSLSPGERATLSCRASQSVSSSYLAWYQQKPGQAPRLLIYGASSRATGIPGRFSGSGSGTDFTLTISRLEPEDFAIYYCQQGVTFGGGTKVEIKR: 92
- SPK002M A1 antibody (antibody, human IgG1, kappa, V domains shown) VH: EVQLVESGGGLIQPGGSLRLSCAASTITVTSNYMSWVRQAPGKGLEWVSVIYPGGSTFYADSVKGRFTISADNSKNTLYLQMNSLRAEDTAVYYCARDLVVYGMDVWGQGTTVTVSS VL: EIVLTQSPGTLSLSPGERATLSCRASQGFSSSYLAWYQQKPGQAPRLLIYGASSRATGIPGRFSGSGSGTDFTLTISRLEPEDFAVYYCQQGVTFGGGTKVEIKR: 95

Request: Given the binder SPK002M C3 antibody (antibody, human IgG1, kappa, V domains shown) VH: EVQLVESGGGLIQPGGSLRLSCAASIITVTSNYMSWVRQAPGKGLEWVSVIYPGGSTFYADSVKGRFTISTDNSKNTLYLQMNSLRAEDTAVYYCARDLVVYGMDVWGQGTTVTVSS VL: EIVLTQSPGTLSLSPGERATLSCRASQSVSSSYLAWYQQKPGQAPRLLIYGASSRATGIPGRFSGSGSGTDFTLTISRLEPEDFAVYYCQQGVTFGGGTKVEIKR , what is its reported Blocking %?
Result: 94
